# System: Klebsiella pneumoniae (ATCC 43816)
# protocolDetails: MIC by broth microdilution
# Assay type: cell-based
# condition: Table 2, Example 2
# Method: The antibacterial potency of the test article(s) was measured using the in vitro broth microdilution assay under assay conditions described by the Clinical and Laboratory Standards Institute. […] Following incubation for 1 day at 36° C., the test plates were visually examined and wells were scored for growth or complete growth inhibition to define the minimum inhibitory concentration. Each test substance was evaluated in duplicate and the results were reported as the duplicate test values. […]
reportedEndpoint: MIC

Example molecules with recorded MIC:
CN(C)Cc1ccc(/C=C/c2cc(/C=C/c3ccc(CN(C)C)cc3)cc(/C=C/c3ccc(CN(C)C)cc3)c2)cc1 [Compound 2] : 16 µg/mL
Nc1ccc(CCc2cc(CCc3ccc(N)cc3)cc(CCc3ccc(N)cc3)c2)cc1 [Compound 2 (TSB014)] : >32.0 µg/mL
CN(C)C(=O)c1ccc(CCc2cc(CCc3ccc(C(=O)N(C)C)cc3)cc(CCc3ccc(C(=O)N(C)C)cc3)c2)cc1 [Compound 5 (TSB032)] : >32.0 µg/mL
C[N+](C)(C)Cc1ccc(/C=C/c2cc(/C=C/c3ccc(C[N+](C)(C)C)cc3)cc(/C=C/c3ccc(C[N+](C)(C)C)cc3)c2)cc1.[I-].[I-].[I-] [Compound 1] : 128 µg/mL

For CN(C)Cc1ccc(/C=C/c2cc(/C=C/c3ccc(CC(N)=O)cc3)cc(/C=C/c3ccc(CC(=O)O)cc3)c2)cc1 [Compound 14] on Klebsiella pneumoniae (ATCC 43816), measured MIC was >128 µg/mL

For N#Cc1ccc(/C=C/c2cc(/C=C/c3ccc(C#N)cc3)cc(/C=C/c3ccc(C#N)cc3)c2)cc1 [Compound 3] on Klebsiella pneumoniae (ATCC 43816), measured MIC was >128 µg/mL

For CN(C)Cc1ccc(/C=C/c2cc(/C=C/c3ccc(CC(=O)O)cc3)cc(/C=C/c3ccc(CC(=O)O)cc3)c2)cc1 [Compound 16] on Klebsiella pneumoniae (ATCC 43816), measured MIC was >128 µg/mL

---

Below, each entry is listed with its recorded MIC.
# Tested on: Haemophilus influenzae (ATCC 49247)
# protocolDetails: MIC by broth microdilution
# Assay type: cell-based
# condition: Table 2, Example 2

O=[N+]([O-])c1ccc(CCc2cc(CCc3ccc([N+](=O)[O-])cc3)cc(CCc3ccc([N+](=O)[O-])cc3)c2)cc1 : >32.0 mg/L
CN(C)c1ccc(/C=C/c2cc(/C=C/c3ccc(N(C)C)cc3)cc(/C=C/c3ccc(N(C)C)cc3)c2)cc1 : >128 mg/L
N#Cc1ccc(/C=C/c2cc(/C=C/c3ccc(C#N)cc3)cc(/C=C/c3ccc(C#N)cc3)c2)cc1 : >128 mg/L
CN(C)Cc1ccc(/C=C/c2cc(/C=C/c3ccc(CC(N)=O)cc3)cc(/C=C/c3ccc(CC(N)=O)cc3)c2)cc1 : >128 mg/L

Query C[N+](C)(C)Cc1ccc(/C=C/c2cc(/C=C/c3ccc(C[N+](C)(C)C)cc3)cc(/C=C/c3ccc(C[N+](C)(C)C)cc3)c2)cc1.[I-].[I-].[I-] yields MIC of >128 mg/L

Query CN(C)Cc1ccc(/C=C/c2cc(/C=C/c3ccc(CN(C)C)cc3)cc(/C=C/c3ccc(CN(C)C)cc3)c2)cc1 yields MIC of >128 mg/L

---

Below, each entry is listed with its recorded MIC.
# System: Escherichia coli (ATCC 25922)
# protocolDetails: MIC by broth microdilution
# Assay type: cell-based
# condition: Table 2, Example 2
Express your answer in µg/mL, writing the number without its unit.

CN(C)Cc1ccc(/C=C/c2cc(/C=C/c3ccc(CN(C)C)cc3)cc(/C=C/c3ccc(CN(C)C)cc3)c2)cc1 : 8

Query C[N+](C)(C)Cc1ccc(/C=C/c2cc(/C=C/c3ccc(C[N+](C)(C)C)cc3)cc(/C=C/c3ccc(C[N+](C)(C)C)cc3)c2)cc1.[I-].[I-].[I-] yields MIC of 64

---

# System: Haemophilus influenzae (ATCC 49247)
# protocolDetails: MIC by broth microdilution
# Assay type: cell-based
# condition: Table 2, Example 2
Below, each entry is listed with its recorded MIC.

For CC(=O)ONc1ccc(CCc2cc(CCc3ccc(NOC(C)=O)cc3)cc(CCc3ccc(NOC(C)=O)cc3)c2)cc1 [Compound 9 (TSB016)] on Haemophilus influenzae (ATCC 49247), measured MIC was >32.0 µg/mL

For CN(C)Cc1ccc(/C=C/c2cc(/C=C/c3ccc(CC(=O)O)cc3)cc(/C=C/c3ccc(CC(=O)O)cc3)c2)cc1 [Compound 16] on Haemophilus influenzae (ATCC 49247), measured MIC was >128 µg/mL

---

# Tested on: Haemophilus influenzae (ATCC 49247)
# protocolDetails: MIC by broth microdilution
# Assay type: cell-based
# condition: Table 2, Example 2
reportedEndpoint: MIC

Example compounds with recorded MIC:
Nc1ccc(CCc2cc(CCc3ccc(N)cc3)cc(CCc3ccc(N)cc3)c2)cc1 : >32.0 µg/mL
N#Cc1ccc(CCc2cc(CCc3ccc(C#N)cc3)cc(CCc3ccc(C#N)cc3)c2)cc1 : >32.0 µg/mL
NC(=O)Cc1ccc(/C=C/c2cc(/C=C/c3ccc(CC(N)=O)cc3)cc(/C=C/c3ccc(CC(N)=O)cc3)c2)cc1 : >128 µg/mL
CN(C)C(=O)c1ccc(CCc2cc(CCc3ccc(C(=O)N(C)C)cc3)cc(CCc3ccc(C(=O)N(C)C)cc3)c2)cc1 : >32.0 µg/mL
NC(=O)c1ccc(CCc2cc(CCc3ccc(C(N)=O)cc3)cc(CCc3ccc(C(N)=O)cc3)c2)cc1 : >32.0 µg/mL
CN(C)c1ccc(CCc2cc(CCc3ccc(N(C)C)cc3)cc(CCc3ccc(N(C)C)cc3)c2)cc1 : >32.0 µg/mL

Attention now shifts to the item below.
Query CN(C)Cc1ccc(/C=C/c2cc(/C=C/c3ccc(CC(N)=O)cc3)cc(/C=C/c3ccc(CC(=O)O)cc3)c2)cc1 yields MIC of >128 µg/mL
